- experimental-target: Platelet-activating factor receptor (Oryctolagus cuniculus)
- test-details: Antagonistic activity was tested against Platelet-Activating Factor-induced aggregation of rabbit washed platelets.
Response field label takes Satisfied when IC50 is strictly below 0.7 nM and Not satisfied in all other cases.

compound	class-label
Cc1nc2cnccc2n1-c1ccc(C2=Nc3cc(Cl)c(Cl)cc3NC(=S)C2)cc1	Satisfied
Cc1nc2cnccc2n1-c1ccc(-c2cc(=O)n3[nH]ccc3n2)cc1	Not satisfied
Cc1nc2cnccc2n1-c1ccc(I)cc1	Not satisfied
Cc1cc2c(cc1C)NC(=S)CC(c1ccc(-n3c(C)nc4cnccc43)cc1)=N2	Satisfied

###

- experimental-target: Platelet-activating factor receptor (Oryctolagus cuniculus)
- test-details: Antagonistic activity was tested against Platelet-Activating Factor-induced aggregation of rabbit washed platelets.
endpoint-label: IC50 (nM)

molecule	experimental-target	value-observed
Cc1nc2cnccc2n1-c1ccc(C2CC(=O)Nc3cc(Cl)c(Cl)cc3C2)cc1 (stereo not given)	Platelet-activating factor receptor (Oryctolagus cuniculus)	0.5
Cc1cc2c(cc1C)N=C(c1ccc(-n3c(C)nc4cnccc43)cc1)CC(N)=N2	Platelet-activating factor receptor (Oryctolagus cuniculus)	1.9
Cc1nc2cnccc2n1-c1ccc(C2=Nc3ccccc3C(=O)CC2)cc1	Platelet-activating factor receptor (Oryctolagus cuniculus)	15
Cc1nc2cnccc2n1-c1ccc(C2=NCCNC(=O)C2)cc1	Platelet-activating factor receptor (Oryctolagus cuniculus)	2600
Cc1nc2cnccc2n1-c1ccc(C2CC(=O)N(C)c3cc(Cl)c(Cl)cc3C2)cc1 (stereo not given)	Platelet-activating factor receptor (Oryctolagus cuniculus)	0.5
